Literature survey of IC50 (system: Oxysterols receptor LXR-beta (Homo sapiens)).
Measurement Name: IC50 (nM)

Structure Smiles String: CCS(=O)(=O)c1cccc(Oc2cccc(-c3c(C(C)C)nc4c(C(F)(F)F)ccnn34)c2)c1
Qualifier Operator: =
Observed Value: 117
//
Structure Smiles String: Cc1nc2cccc(C#N)c2nc1-c1ccc(-c2cccc(S(C)(=O)=O)c2)cc1
Qualifier Operator: =
Observed Value: 3020
//
Structure Smiles String: Cc1nc2cccc(C(F)(F)F)c2nc1-c1ccc(Oc2cccc(S(C)(=O)=O)c2)cc1F
Qualifier Operator: >
Observed Value: 1000
//
Structure Smiles String: CC(C)c1cnc2c(C(F)(F)F)cccc2c1-c1cccc(OC(=O)c2ccccc2S(C)(=O)=O)c1
Qualifier Operator: =
Observed Value: 112
//
Structure Smiles String: CC(C)CN(Cc1cccc(-c2cccc(S(C)(=O)=O)c2)c1)S(=O)(=O)C(C)C
Qualifier Operator: =
Observed Value: 805
//
Structure Smiles String: CCc1nc2c(C#N)cccn2c1-c1cccc(Oc2cccc(S(=O)(=O)N(Cc3ccc(OC)cc3)Cc3ccc(OC)cc3)c2)c1
Qualifier Operator: >
Observed Value: 1000

###

pIC50: −log10 of the molar value.
Literature survey of pIC50 (system: Oxysterols receptor LXR-beta (Homo sapiens, UniProt P55055)).

Compound: COc1ccc(C(=O)O)cc1C#Cc1cccc(-c2c(Cc3ccccc3)cnc3c(C(F)(F)F)cccc23)c1
Qualifier Operator: =
pIC50: 5.83
//
Compound: CCS(=O)(=O)c1cc(F)cc(Oc2cccc(-n3c(C)nc4c(Cl)cccc43)c2)c1
Qualifier Operator: =
pIC50: 8.18
//
Compound: CCCS(=O)(=O)c1cccc(Oc2cccc(-c3c(CC)nc4c(C(F)(F)F)cccn34)c2)c1
Qualifier Operator: =
pIC50: 7.03
//
Compound: O=C(O)c1ccc2cc(NCc3cccc(-c4ccnc5c(C(F)(F)F)cccc45)c3)ccc2c1
Qualifier Operator: =
pIC50: 5.88
//
Compound: CC(C)c1nc2c(C#N)cccn2c1-c1cc(Oc2cccc(S(C)(=O)=O)c2)ccc1Cl
Qualifier Operator: =
pIC50: 7.94
//
Compound: COc1cc(C(=O)O)ccc1OCc1cccc(-c2c(Cc3ccccc3)cnc3c(C(F)(F)F)cccc23)c1
Qualifier Operator: =
pIC50: 6.45
//
Compound: CC(C)c1nc(-c2cccc(-c3cccc(S(C)(=O)=O)c3)c2)c2cccc(C(F)(F)F)c2n1
Qualifier Operator: =
pIC50: 6.34
//
Compound: CCCc1nc(-c2cccc(-c3cccc(S(C)(=O)=O)c3)c2)c2cccc(C(F)(F)F)c2n1
Qualifier Operator: =
pIC50: 6.76
//
Compound: Cc1ccc(C)c(-c2cccc([C@H]3CN(C(=O)OC(C)(C)C)C(=O)C[C@H]3c3ccccc3)c2)c1 (relative stereo)
Qualifier Operator: =
pIC50: 6.66
//
Compound: CCN(Cc1ccc(-c2cccc(S(C)(=O)=O)c2)s1)S(=O)(=O)c1ccccc1C(F)(F)F
Qualifier Operator: =
pIC50: 6.36
//
Compound: Cc1nc2c(C(F)(F)F)cccc2nc1-c1ccc(-c2ccc(C(=O)N3CCCC3)cc2)cc1
Qualifier Operator: <
pIC50: 6.00
//
Compound: NC(=O)CCCS(=O)(=O)c1cccc(Oc2ccc(F)c(-c3ncnc4c(Cl)cccc34)c2)c1
Qualifier Operator: =
pIC50: 6.23
//
Compound: Cc1nc2c(C(F)(F)F)cccc2n1-c1ccc(Oc2cccc(S(C)(=O)=O)c2)cc1Cl
Qualifier Operator: =
pIC50: 6.52
//
Compound: CS(=O)(=O)c1cccc(-c2ccc(CN(CC3OCCO3)S(=O)(=O)c3ccccc3C(F)(F)F)s2)c1
Qualifier Operator: =
pIC50: 7.33
//
Compound: Cc1nc2c(Cl)cccc2n1-c1cccc(Oc2ccc(S(C)(=O)=O)cc2F)c1
Qualifier Operator: =
pIC50: 6.45

###

pIC50: −log10 of the molar value.
Literature survey of pIC50 (system: UniProt:P55055).
Measurement Name: pIC50

Compound: Cc1cnc2c(C(F)(F)F)cccc2c1-c1cccc(OC(=O)c2cccc(S(=O)(=O)N(C)C)c2)c1
Tested System: UniProt:P55055
Qualifier Operator: =
Observed Value: 7.85

Compound: O=C(O)CCCS(=O)(=O)c1cccc(Oc2ccc(F)c(-c3ncnc4c(Cl)cccc34)c2)c1
Tested System: UniProt:P55055
Qualifier Operator: =
Observed Value: 5.38

Compound: CS(=O)(=O)NCCCCS(=O)(=O)c1cccc(Oc2ccc(F)c(-c3ncnc4c(C(F)(F)F)cccc34)c2)c1
Tested System: UniProt:P55055
Qualifier Operator: =
Observed Value: 6.66

Compound: O=S(=O)(CCCOC1CCCCO1)c1cccc(Oc2ccc(F)c(-c3ncnc4c(Cl)cccc34)c2)c1 (stereo not shown)
Tested System: UniProt:P55055
Qualifier Operator: =
Observed Value: 7.02

Compound: Cc1nc2c(C(F)(F)F)cccc2nc1-c1cc(Oc2ccccc2S(C)(=O)=O)ccc1Cl
Tested System: UniProt:P55055
Qualifier Operator: =
Observed Value: 5.84

Compound: CNS(=O)(=O)c1cccc(-c2cccc(Oc3cnc4c(Cl)cccc4n3)c2)c1
Tested System: UniProt:P55055
Qualifier Operator: =
Observed Value: 6.19

Compound: CCOc1ccc(F)c(-c2cccc(C3CN(S(=O)(=O)c4ccccc4)C(=O)N3C(C)C)c2)c1 (stereo not shown)
Tested System: UniProt:P55055
Qualifier Operator: =
Observed Value: 7.98

Compound: Cc1cnc2c(C(F)(F)F)cccc2c1-c1cccc(OC(=O)c2ccc(S(C)(=O)=O)cc2)c1
Tested System: UniProt:P55055
Qualifier Operator: =
Observed Value: 7.47

Compound: COc1ccccc1-c1nc2c(C(F)(F)F)cccn2c1-c1ccc(Oc2cccc(S(C)(=O)=O)c2)cc1
Tested System: UniProt:P55055
Qualifier Operator: =
Observed Value: 7.85

Compound: O=C(O)CS(=O)(=O)c1cccc(Oc2ccc(Cl)c(-c3ncnc4c(C(F)(F)F)cccc34)c2)c1
Tested System: UniProt:P55055
Qualifier Operator: =
Observed Value: 7.72

Compound: CC(C)S(=O)(=O)c1cccc(Oc2cccc(-c3c(Cc4ccccc4)nc4c(C(F)(F)F)cccn34)c2)c1
Tested System: UniProt:P55055
Qualifier Operator: =
Observed Value: 8.77

Compound: Cc1cc(Oc2cccc(S(C)(=O)=O)c2)ccc1-n1cnc2c(C(F)(F)F)cccc21
Tested System: UniProt:P55055
Qualifier Operator: =
Observed Value: 6.10

Compound: Cc1cc(C(=O)O)c(C)cc1NCc1cccc(-c2c(C)cnc3c(C(F)(F)F)cccc23)c1
Tested System: UniProt:P55055
Qualifier Operator: =
Observed Value: 6.98

Compound: CS(=O)(=O)c1cccc(C(=O)Oc2ccc(Cl)c(-c3ccnc4c(C(F)(F)F)cccc34)c2)c1
Tested System: UniProt:P55055
Qualifier Operator: =
Observed Value: 7.86

Compound: CS(=O)(=O)c1cc(Oc2ccc(Cl)c(-c3ncnc4c(Cl)cccc34)c2)ccc1C#N
Tested System: UniProt:P55055
Qualifier Operator: =
Observed Value: 6.48

Compound: CC(C)c1nc2c(C(F)(F)F)cccn2c1-c1cccc(Oc2cccc(S(C)(=O)=O)c2)n1
Tested System: UniProt:P55055
Qualifier Operator: <
Observed Value: 6.00

###

Literature survey of pIC50 (system: UniProt:P55055).
pIC50: −log10 of the molar value.

Structure Smiles String: Cc1nc2c(C(F)(F)F)cccn2c1-c1cccc(Oc2ccc(C#N)c(S(C)(=O)=O)c2)c1
Tested System: UniProt:P55055
Qualifier Operator: <
pIC50: 6.00

Structure Smiles String: CC(C)c1nc2c(C#N)cccn2c1-c1cccc(OCc2ccc(S(C)(=O)=O)cc2)c1
Tested System: UniProt:P55055
Qualifier Operator: <
pIC50: 6.00

Structure Smiles String: O=C(O)c1ccc2cc(NCc3cccc(-c4c(Cc5ccccc5)cnc5c(C(F)(F)F)cccc45)c3)ccc2c1
Tested System: UniProt:P55055
Qualifier Operator: =
pIC50: 7.21

Structure Smiles String: CC(C)c1nc2c(Cl)cccn2c1-c1cccc(Oc2cccc(CS(C)(=O)=O)c2)c1
Tested System: UniProt:P55055
Qualifier Operator: =
pIC50: 6.34

Structure Smiles String: Cc1cccc(NCc2cccc(-c3c(Cc4ccccc4)cnc4c(C(F)(F)F)cccc34)c2)c1C(=O)O
Tested System: UniProt:P55055
Qualifier Operator: =
pIC50: 6.04

Structure Smiles String: CC(C)CN(Cc1ccc(-c2cccc(S(C)(=O)=O)c2)o1)S(=O)(=O)c1ccccc1Cl
Tested System: UniProt:P55055
Qualifier Operator: =
pIC50: 7.39

Structure Smiles String: CC(C)c1cnc2c(Cl)cccc2c1-c1cccc(OC(=O)c2cccc(S(C)(=O)=O)c2)c1
Tested System: UniProt:P55055
Qualifier Operator: =
pIC50: 8.66

Structure Smiles String: CS(=O)(=O)c1cccc(-c2ncc(CN(C(=O)c3ccccc3)S(=O)(=O)c3ccccc3Cl)s2)c1
Tested System: UniProt:P55055
Qualifier Operator: =
pIC50: 6.92

Structure Smiles String: Cc1nc(-c2cc(Oc3cccc(S(=O)(=O)CCCCNS(C)(=O)=O)c3)ccc2Cl)c2cccc(C(F)(F)F)c2n1
Tested System: UniProt:P55055
Qualifier Operator: =
pIC50: 6.49

Structure Smiles String: CNS(=O)(=O)c1cccc(Oc2ccc(F)c(-c3ncnc4c(Cl)cccc34)c2)c1
Tested System: UniProt:P55055
Qualifier Operator: =
pIC50: 7.77

Structure Smiles String: Cc1nc2c(C(F)(F)F)cccc2nc1-c1ccc(-c2ccc(CCC(=O)O)cc2)cc1
Tested System: UniProt:P55055
Qualifier Operator: <
pIC50: 6.00

Structure Smiles String: CC(C)c1nc2c(C#N)cccn2c1-c1cc(Oc2cccc(S(=O)(=O)C(C)C)c2)ccc1Cl
Tested System: UniProt:P55055
Qualifier Operator: =
pIC50: 8.07

Structure Smiles String: CC(C)CN(Cc1ccc(-c2cccc(S(C)(=O)=O)c2)s1)S(=O)(=O)c1ccccc1C#N
Tested System: UniProt:P55055
Qualifier Operator: =
pIC50: 7.01

Structure Smiles String: O=C(O)c1cccc(-c2cccc(-c3c(Cc4ccccc4)cnc4c(C(F)(F)F)cccc34)c2)c1
Tested System: UniProt:P55055
Qualifier Operator: =
pIC50: 5.62

Structure Smiles String: Cc1cc(NCc2cccc(-c3ccnc4c(C(F)(F)F)cccc34)c2)c(C)cc1CC(=O)O
Tested System: UniProt:P55055
Qualifier Operator: =
pIC50: 6.54

Structure Smiles String: Cc1nc2c(C(F)(F)F)cccn2c1-c1cccc(Oc2cccc(S(=O)(=O)CCC(C)(C)O)c2)c1
Tested System: UniProt:P55055
Qualifier Operator: =
pIC50: 6.28

Structure Smiles String: Cc1nc2c(C(F)(F)F)cccc2nc1-c1ccc(-c2cccc(S(C)(=O)=O)c2)cc1F
Tested System: UniProt:P55055
Qualifier Operator: <
pIC50: 6.00
